Molecular target: T1, mouse CD47 (mouse, UniProt Q61735 19-303)
T1 construct: whole, on cells; also called CD47 on mouse red blood cells
T1 sequence (looked up): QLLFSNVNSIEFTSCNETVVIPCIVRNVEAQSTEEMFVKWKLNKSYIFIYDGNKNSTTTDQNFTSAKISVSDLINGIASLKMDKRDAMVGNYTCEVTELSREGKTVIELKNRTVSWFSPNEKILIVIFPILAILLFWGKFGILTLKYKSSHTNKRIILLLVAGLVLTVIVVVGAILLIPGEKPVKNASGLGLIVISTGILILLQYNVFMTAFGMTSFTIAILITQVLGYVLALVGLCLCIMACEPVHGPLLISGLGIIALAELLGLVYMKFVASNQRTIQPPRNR
Test: flow cytometry on RBCs, antibody 10 ng/ml
This section presents binders with their documented mean fluorescence relative to chimeric antibody values.

BINDER	RESULT
pVxK7b-037-hum13-LC/pVxK7b-037-hum13-HC (antibody, human IgG1, V domains shown, Full-length human IgG1/kappa in CHO supernatant; Variable entries end within framework 4 (...FGQG / ...WGQG); also called Clone 13) VH: EVQLVQSGAEVKKPGESLRISCKGSGYTFTNYYVFWIRQSPSRGLEWLGDINPVNGDTNFNEKFKNRVTITADKSTSTAYMELSSLRSEDTAVYYCARGGYTMDYWGQG VL: DIVMTQTPLSLPVTPGEPASISCRSSQSLVHSNGNTYLHWYQQKPGKAPKLLIYKVSYRFSGVPDRFSGSGSGTDFTLKISRVEAEDVGVYYCSQNTHVPRTFGQG	1.3 fold of chimera
pVxK7b-037-hum05-LC/pVxK7b-037-hum05-HC (antibody, human IgG1, V domains shown, Full-length human IgG1/kappa in CHO supernatant; Variable entries end within framework 4 (...FGQG / ...WGQG); also called Clone 5) VH: QVQLQESGPGLVKPSQTLSLTCTVSGYTFTNYYVFWVRQAPGKGLEWVSDINPVNGDTNFNEKFKNRVTISVDTSKNQFSLKLSSVTAADTAVYYCARGGYTMDYWGQG VL: DIVMTQTPLSLPVTPGEPASISCRSSQSLVHSNGNTYLHWYLQKPGQSPQLLIYKVSYRFSGVPDRFSGSGSGTDFTLKISRVEAEDVGVYYCSQNTHVPRTFGQG	1 fold of chimera

**Query** Tell me the measured mean fluorescence relative to chimeric antibody of pVxK7b-037-hum10-LC/pVxK7b-037-hum10-HC (antibody, human IgG1, V domains shown, Full-length human IgG1/kappa in CHO supernatant; Variable entries end within framework 4 (...FGQG / ...WGQG); also called Clone 10) VH: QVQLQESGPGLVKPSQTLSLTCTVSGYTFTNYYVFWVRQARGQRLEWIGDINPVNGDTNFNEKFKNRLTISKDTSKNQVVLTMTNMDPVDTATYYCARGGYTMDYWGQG VL: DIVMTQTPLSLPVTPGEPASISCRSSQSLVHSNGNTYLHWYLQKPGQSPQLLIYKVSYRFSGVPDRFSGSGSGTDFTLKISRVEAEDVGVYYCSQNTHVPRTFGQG , please.
**Result** 1.2 fold of chimera
